src = patent US20210246166A1

Please respond with reported human MASP2 IC50 for every item in the list.
# System under test: recombinant human MASP2 active protease (amino acids 297-686, C-terminal His Tag) (human, UniProt O00187 297-686)
# Sequence (O00187 other isoform, or with tags, fused parts or gaps limits assumed): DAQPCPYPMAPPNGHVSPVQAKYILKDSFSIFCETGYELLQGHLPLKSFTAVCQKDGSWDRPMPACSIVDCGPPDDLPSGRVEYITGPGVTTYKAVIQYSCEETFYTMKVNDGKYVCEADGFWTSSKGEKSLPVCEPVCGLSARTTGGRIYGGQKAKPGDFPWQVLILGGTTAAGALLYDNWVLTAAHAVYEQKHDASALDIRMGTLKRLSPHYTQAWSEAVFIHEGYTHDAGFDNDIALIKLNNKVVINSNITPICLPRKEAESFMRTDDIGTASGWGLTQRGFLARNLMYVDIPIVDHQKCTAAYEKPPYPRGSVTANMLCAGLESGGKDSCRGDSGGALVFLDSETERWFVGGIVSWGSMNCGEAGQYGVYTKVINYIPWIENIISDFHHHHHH
# Experiment: cell-based or functional assay
Bridge positions count the residues as written; N and C are the ends. Square brackets hold non-standard residues; d marks the D form. Ends that are not written are not given here. Oic = O=C(O)[C@@H]1C[C@@H]2CCCC[C@@H]2N1; Pen = CC(C)(S)[C@H](N)C(=O)O; PEG3 = NCCOCCOCCOCCC(=O)O; NMeA = CN[C@@H](C)C(=O)O; Sar = CNCC(=O)O
Kindly format the answer as number then unit.

[NMeA]ICSRSLP[Oic]I[Pen]IPE-NH2 (disulfide 3-11; N-terminus assumed; SMILES CC[C@H](C)[C@H](NC(=O)[C@H](C)NC)C(=O)N[C@H]1CSSC(C)(C)[C@@H](C(=O)N[C@H](C(=O)N2CCC[C@H]2C(=O)N[C@@H](CCC(=O)O)C(N)=O)[C@@H](C)CC)NC(=O)[C@H]([C@@H](C)CC)NC(=O)[C@@H]2C[C@@H]3CCCC[C@@H]3N2C(=O)[C@@H]2CCCN2C(=O)[C@H](CC(C)C)NC(=O)[C@H](CO)NC(=O)[C@H](CCCNC(=N)N)NC(=O)[C@H](CO)NC1=O) [((N-Me)A)-IC+SRSLP-(Oic)-I-(Pen)+IPE-NH2]: 200 nM

What does the data say about its human MASP2 IC50? Entry: [Sar]ICSRSLP[Oic]I[Pen]IP[PEG3]-NH2 (disulfide 3-11; N-terminus assumed; SMILES CC[C@H](C)[C@H](NC(=O)CNC)C(=O)N[C@H]1CSSC(C)(C)[C@@H](C(=O)N[C@H](C(=O)N2CCC[C@H]2C(=O)NCCOCCOCCOCCC(N)=O)[C@@H](C)CC)NC(=O)[C@H]([C@@H](C)CC)NC(=O)[C@@H]2C[C@@H]3CCCC[C@@H]3N2C(=O)[C@@H]2CCCN2C(=O)[C@H](CC(C)C)NC(=O)[C@H](CO)NC(=O)[C@H](CCCNC(=N)N)NC(=O)[C@H](CO)NC1=O) [((N-Me)G)-IC+SRSLP-(Oic)-I-(Pen)+IP-(PEG2(13 atoms))-NH2]
23 nM
